assay.procedure: Stability in mouse liver microsomes
Assay type: in vitro ADME
cond: mouse, microsomes
Description: Mouse Liver Microsome Assays. These assays were carried out as detailed previously.
parameter.measured: remaining at 0.5 h (%)

O=C(NC1CCC2CCCCC2C1)c1ccc(-c2ccccc2)cc1 (stereo not shown)
22.5

---

assay.procedure: Stability in mouse liver microsomes
Format: in vitro ADME
cond: mouse, microsomes
Method: Mouse Liver Microsome Assays. These assays were carried out as detailed previously.
parameter.measured: remaining at 1 h (%)

O=C(NC1CCC2CCCCC2C1)c1ccc(-c2ccccc2)cc1 (stereo not shown)
10.3

---

Tested on: MDR1
assay.procedure: in vitro
cond: dog, MDCK-MDR1, pH 7.4, Papp average
parameter.measured: Papp at 120 min, 5 μM

O=C(NC1CCC2CCCCC2C1)c1ccc(-c2ccccc2)cc1 (stereo not shown)
1.79 ×10⁻⁶ cm/s

---

assay.procedure: Stability in mouse liver microsomes
Format: in vitro ADME
cond: mouse, microsomes
parameter.measured: half-life (min)

O=C(NC1CCC2CCCCC2C1)c1ccc(-c2ccccc2)cc1 (stereo not shown)
11.3

---

assay.procedure: Stability in mouse liver microsomes
Assay type: in vitro ADME
cond: mouse, microsomes
parameter.measured: remaining at 20 min (%)

O=C(NC1CCC2CCCCC2C1)c1ccc(-c2ccccc2)cc1 (stereo not shown)
30.7

---

assay.procedure: Stability in mouse liver microsomes
Assay type: in vitro ADME
cond: mouse liver microsomes; read-out: CLint
parameter.measured: microsomal CLint (µL/min/mg)

C[C@]12CC[C@H]3[C@@H](CCC4=CC(=O)CC[C@@]43C)[C@@H]1CC[C@@H]2O [testosterone, reference compound]
302

---

measured.on: mouse α4β2 nAChRs (Mus musculus, UniProt O70174+Q9ERK7)
Construct: expressed in transfected cells; host or cells: mouse neuroblastoma-2a (neuro-2a) cells, transient transfection with Lipofectamine 3000
Sequence (O70174 31-629): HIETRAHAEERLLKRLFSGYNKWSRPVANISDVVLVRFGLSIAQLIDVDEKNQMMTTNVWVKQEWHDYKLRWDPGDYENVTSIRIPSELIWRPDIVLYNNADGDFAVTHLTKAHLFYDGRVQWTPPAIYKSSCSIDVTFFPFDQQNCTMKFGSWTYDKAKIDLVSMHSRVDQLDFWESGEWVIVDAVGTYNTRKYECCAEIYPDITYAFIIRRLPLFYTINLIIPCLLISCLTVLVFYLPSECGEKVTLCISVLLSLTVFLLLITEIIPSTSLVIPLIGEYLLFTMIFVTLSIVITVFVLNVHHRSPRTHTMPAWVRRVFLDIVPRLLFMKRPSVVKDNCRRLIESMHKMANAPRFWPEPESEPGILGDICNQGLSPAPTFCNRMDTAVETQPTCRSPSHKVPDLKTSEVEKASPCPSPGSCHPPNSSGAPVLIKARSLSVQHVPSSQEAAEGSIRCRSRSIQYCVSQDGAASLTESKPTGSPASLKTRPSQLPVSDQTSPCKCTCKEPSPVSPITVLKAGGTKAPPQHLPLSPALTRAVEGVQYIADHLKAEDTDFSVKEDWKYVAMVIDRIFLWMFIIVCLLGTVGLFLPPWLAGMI
Sequence (Q9ERK7 26-501): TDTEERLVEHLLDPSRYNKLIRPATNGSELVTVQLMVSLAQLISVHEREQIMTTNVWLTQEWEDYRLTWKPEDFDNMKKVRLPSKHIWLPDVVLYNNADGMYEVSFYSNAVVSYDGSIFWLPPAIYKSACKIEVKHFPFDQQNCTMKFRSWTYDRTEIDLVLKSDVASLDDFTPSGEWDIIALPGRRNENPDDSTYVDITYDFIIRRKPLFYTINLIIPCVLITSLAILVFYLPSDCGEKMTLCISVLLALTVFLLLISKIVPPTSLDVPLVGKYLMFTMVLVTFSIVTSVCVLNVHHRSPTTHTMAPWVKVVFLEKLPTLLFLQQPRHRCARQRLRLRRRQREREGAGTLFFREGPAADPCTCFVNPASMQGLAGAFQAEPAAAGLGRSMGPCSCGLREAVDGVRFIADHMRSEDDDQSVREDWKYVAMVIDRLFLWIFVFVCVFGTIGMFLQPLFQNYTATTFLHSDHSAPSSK
assay.procedure: Calcium 6 Ca2+ flux assay, neuro-2a cells transiently transfected with α4β2 nAChRs
Assay type: cell-based
cond: in the presence of 100 µM nicotine
The entries below are paired with their reported concentration at which maximum increase occurs.
parameter.measured: concentration at which maximum increase occurs

O=C(NC1CCCCC1)c1ccc(-c2ccccc2)cc1 [VBJ032]
50 µM
O=C(NC1CCC2CCCCC2C1)c1ccc(-c2ccccc2)cc1 (stereo not shown) [VBJ104]
100 µM
O=C(NC1CCCCCCC1)c1ccc(-c2ccccc2)cc1 [VBJ051]
50 µM
O=C(NC1CCc2ccccc2C1)c1ccc(-c2ccccc2)cc1 (stereo not shown) [VBJ109]
50 µM

---

Test system: MDR1
assay.procedure: MDR1-MDCK permeability
cond: dog, MDCK-MDR1, pH 7.4, Recovery (%), A-to-B, 5 μM, pH 7.4, 120 minutes
parameter.measured: recovery at 120 min, 5 μM (%)

O=C(NC1CCC2CCCCC2C1)c1ccc(-c2ccccc2)cc1 (stereo not shown) [VBJ104]
70.8
